test: in vitro; format: in vitro ADME, human; conditions: human, serum, Table 5; human serum, 37° C.; read-out: Serum Half-life (converted)
Mark MET for reported half-life of 10 min or greater; mark NOT MET for anything smaller.

- COMPOUND: "C[C@@H](OC(=O)c1ccc[n+](C)c1)[C@H](NC(=O)OCc1ccccc1)C(=O)OCc1ccccc1 [threonine, L-isomer, HO-trigonellate ester, N-CBZ benzyl ester]"
  GROUP: "MET"
- COMPOUND: "CC(=O)O[C@H](CC(=O)NCCCCCCOC(=O)OC(C)Cc1ccc([N+](=O)[O-])cc1)C[N+](C)(C)C (stereo partly shown)"
  GROUP: "NOT MET"
- COMPOUND: "COc1ccc2c(c1)c(CC(=O)OCC[N+](C)(C)C)c(C)n2C(=O)c1ccc(Cl)cc1 [(indomethacinyl)choline iodide, indomethacinylcholine iodide]"
  GROUP: "NOT MET"
- COMPOUND: "C#CC[N+](C)(COC(=O)OCCCCCCCC)C(C)Cc1ccccc1 (stereo not shown)"
  GROUP: "NOT MET"
- COMPOUND: "COc1ccc2c(c1)c(CC(=O)OCCN(C)C(=O)CCCCCN(C)C)c(C)n2C(=O)c1ccc(Cl)cc1"
  GROUP: "MET"
- COMPOUND: "COc1cc(NC(=O)OCC[N+](C)(C)C)c(Cl)cc1C(=O)N[C@H]1CCN(CCCOc2ccc(F)cc2)C[C@H]1OC (relative stereo)"
  GROUP: "MET"
- COMPOUND: "CC(=O)OC(CC(=O)OC1C(O)CC(OC2C(O)CC(OC3C(O)CC(OC4CCC5(C)C(CCC6C5CC(O)C5(C)C(C7=CC(=O)OC7)CCC65O)C4)OC3C)OC2C)OC1C)C[N+](C)(C)C (stereo not shown)"
  GROUP: "NOT MET"

---

Assay: in vitro
Type: in vitro ADME, human
Settings: human, serum, Table 5; human serum, 37° C.; read-out: Serum Half-life (converted)
Experimental: Table 4 lists the serum half-lives for several model compounds and two representative pharmaceutical agent-chemical modifier complexes using an in vitro assay system described in the Experimental section below. […] Freshly defrosted human serum (3 ml, Sigma) was warmed at 37° C. for five minutes and then 60 μl of the agent-modifier complex stock solution was added with vortexing. […] Half-lives were calculated using the equation […]
ASSAY METRIC: half-life

- COMPOUND: "O=C(OCCc1ccc([N+](=O)[O-])cc1)c1cccnc1"
  RECORDED VALUE: "0.433 min"
- COMPOUND: "CCOC(=O)C[C@H](C[N+](C)(C)C)OC(=O)O[C@H]1CC[C@H]2[C@@H]3CCC4=CC(=O)CC[C@]4(C)[C@H]3CC[C@]12C"
  RECORDED VALUE: "49 min"
- COMPOUND: "CC1OC(OC2CCC3(C)C(CCC4C3CC(OC(=O)CCCCCN(C)C)C3(C)C(C5=CC(=O)OC5)CCC43O)C2)CC(O)C1OC1CC(O)C(OC2CC3OC(=O)OC3C(C)O2)C(C)O1 (stereo not shown)"
  RECORDED VALUE: "36300 min"
- COMPOUND: "CCn1cc(C(=O)OCOC(=O)OCC[N+](C)(C)C)c(=O)c2ccc(C)nc21"
  RECORDED VALUE: "1.27 min"
- COMPOUND: "CCCCCCCCCCCCCCCC(=O)O[C@H](CC(=O)O[C@H]1CC[C@H]2[C@@H]3CCC4=CC(=O)CC[C@]4(C)[C@H]3CC[C@]12C)C[N+](C)(C)C"
  RECORDED VALUE: "7060 min"
- COMPOUND: "C[C@H]1O[C@@H](O[C@H]2[C@@H](O)C[C@H](O[C@H]3[C@@H](O)C[C@H](O[C@H]4CC[C@@]5(C)[C@H](CC[C@@H]6[C@@H]5C[C@@H](OC(=O)c5cccnc5)[C@]5(C)[C@@H](C7=CC(=O)OC7)CC[C@]65O)C4)O[C@@H]3C)O[C@@H]2C)C[C@@H]2OC(=O)O[C@@H]21"
  RECORDED VALUE: "19900 min"
- COMPOUND: "CCCC[N+](C)(C)CCOC(=O)Cc1c(C)n(C(=O)c2ccc(Cl)cc2)c2ccc(OC)cc12"
  RECORDED VALUE: "0.633 min"

---

Parameter: Serum Half-life. Scope: all listed entries.
experiment: in vitro; format: in vitro ADME, human; details: Table 5; human serum, 37° C.

- MOLECULE: "CCCC(=O)OCn1c(=O)c(F)cn(C(C)OC(=O)CCC[N+](C)(C)C)c1=O.[I-] (stereo not shown)"
  UNITS: "min"
  Serum Half-life: 9.7
- MOLECULE: "CC1OC(OC2C(C)OC(OC3C(C)OC(OC4CCC5(C)C(CCC6C5CC(OC(=O)OCOC(=O)CCCCC[N+](C)(C)C)C5(C)C(C7=CC(=O)OC7)CCC65O)C4)CC3OC(=O)OCOC(=O)CCCCC[N+](C)(C)C)CC2OC(=O)OCOC(=O)CCCCC[N+](C)(C)C)CC2OC(=O)OC12 (stereo not shown)"
  UNITS: "min"
  Serum Half-life: 840
- MOLECULE: "CCCCCCCCCCCC(=O)OCn1c(=O)c(F)cn(C(C)OC(=O)CCC[N+](C)(C)C)c1=O.[I-] (stereo not shown)"
  UNITS: "min"
  Serum Half-life: 13
- MOLECULE: "CC(=O)OC(CC(=O)OCCCCCCCCCC(=O)OCC(=O)OC1=CC2=CC[C@H]3[C@@H]4CC[C@H](C(C)=O)[C@@]4(C)CC[C@@H]3[C@@]2(C)CC1)C[N+](C)(C)C (stereo partly shown)"
  UNITS: "min"
  Serum Half-life: 28.9

---

Parameter: half-life. Scope: all listed entries.
assay: in vitro; assay type: in vitro ADME, human; settings: human, serum, Table 5; human serum, 37° C.; read-out: Serum Half-life (converted)
ASSAY METRIC: half-life (h)

- COMPOUND: "C[C@]12CC[C@@H]3c4ccc(O)cc4CC[C@H]3[C@@H]1CC[C@@H]2OC(=O)C[N+](C)(C)C"
  ASSAY METRIC: "half-life"
  UNITS: "h"
  RECORDED VALUE: 4.5
- COMPOUND: "CC1OC(OC2CCC3(C)C(CCC4C3CC(OC(=O)OCC[N+](C)(C)C)C3(C)C(C5=CC(=O)OC5)CCC43O)C2)CC(O)C1OC1CC(O)C(OC2CC3OC(=O)OC3C(C)O2)C(C)O1 (stereo not shown)"
  ASSAY METRIC: "half-life"
  UNITS: "h"
  RECORDED VALUE: 29
- COMPOUND: "COc1ccc2c(c1)c(CC(=O)COC(=O)OCC[N+](C)(C)C)c(C)n2C(=O)c1ccc(Cl)cc1"
  ASSAY METRIC: "half-life"
  UNITS: "h"
  RECORDED VALUE: 0.0181
- COMPOUND: "Cn1c(=O)c2c(ncn2COC(=O)CCC[N+](C)(C)C)n(C)c1=O"
  ASSAY METRIC: "half-life"
  UNITS: "h"
  RECORDED VALUE: 2.4

---

assay: in vitro; assay type: in vitro ADME, human; conditions: human, serum, Table 5; human serum, 37° C.; read-out: Serum Half-life (converted)
Where a name gives a salt, the structure may show the parent alone.
# note: boundary value 0.3 h maps to not satisfied; half-life below it maps to satisfied

- COMPOUND: "CC1OC(OC2C(C)OC(OC3C(C)OC(OC4CCC5(C)C(CCC6C5CC(O)C5(C)C(C7=CC(=O)OC7)CCC65O)C4)CC3OC(=O)OCC[N+](C)(C)C)CC2OC(=O)OCC[N+](C)(C)C)CC2OC(=O)OC12 (centres unmarked)"
  GROUP: "not satisfied"
- COMPOUND: "CC(=O)O[C@H](CC(=O)NCCC(=O)OCCc1ccc([N+](=O)[O-])cc1)C[N+](C)(C)C"
  GROUP: "satisfied"
- COMPOUND: "C[N+](C)(C)CCOC(=O)OC1N=C(c2ccccc2Cl)c2cc(Cl)ccc2NC1=O (centres unmarked)"
  GROUP: "not satisfied"
- COMPOUND: "CCCCCCCCCCCC(=O)OCn1cc(F)c(=O)n(COC(=O)CCC[N+](C)(C)C)c1=O"
  GROUP: "not satisfied"
- COMPOUND: "C#CC[N+](C)(COC(=O)c1ccccc1)C(C)Cc1ccccc1 (centres unmarked) [deprenyl-N-benzoyloxymethyl, iodide salt]"
  GROUP: "satisfied"
- COMPOUND: "C[C@]12CC[C@@H]3c4ccc(O)cc4CC[C@H]3[C@@H]1CC[C@@H]2OC(=O)OCC[N+](C)(C)C"
  GROUP: "satisfied"
- COMPOUND: "CC(=O)O[C@H](CC(=O)NCCc1ccc([N+](=O)[O-])cc1)C[N+](C)(C)C"
  GROUP: "not satisfied"
- COMPOUND: "CC(=O)O[C@H](CC(=O)OC[C@H](NC(=O)OCc1ccccc1)C(=O)OCc1ccccc1)C[N+](C)(C)C [serine, L-isomer, HO-(O-acetyl-L-carnitine ester) N-CBZ, benzyl ester]"
  GROUP: "not satisfied"
- COMPOUND: "CC(=O)O[C@H](CC(=O)OC1N=C(c2ccccc2Cl)c2cc(Cl)ccc2NC1=O)C[N+](C)(C)C (some centres unmarked)"
  GROUP: "not satisfied"
- COMPOUND: "COc1ccc2c(c1)c(CC(=O)CO)c(C)n2C(=O)c1ccc(Cl)cc1 [indomethacin hydroxymethyl ketone]"
  GROUP: "not satisfied"
- COMPOUND: "C[C@]12CC[C@@H]3c4ccc(O)cc4CC[C@H]3[C@@H]1CC[C@@H]2OC(=O)NCC(=O)OCC[N+](C)(C)C"
  GROUP: "satisfied"
- COMPOUND: "CCCC(=O)OC[N+]1(CCCOc2ccc(F)cc2)CC[C@H](NC(=O)c2cc(Cl)c(N)cc2OC)[C@H](OC)C1 (relative stereo)"
  GROUP: "satisfied"
- COMPOUND: "C[C@H]1O[C@@H](O[C@H]2[C@@H](O)C[C@H](O[C@H]3[C@@H](O)C[C@H](O[C@H]4CC[C@@]5(C)[C@H](CC[C@@H]6[C@@H]5CC[C@]5(C)[C@@H](C7=CC(=O)OC7)CC[C@]65O)C4)O[C@@H]3C)O[C@@H]2C)C[C@H](O)[C@@H]1OC(=O)OCC[N+](C)(C)C"
  GROUP: "satisfied"
- COMPOUND: "CC(=O)O[C@H](CC(=O)O[C@H]1CC[C@H]2[C@@H]3CCC4=CC(=O)CC[C@]4(C)[C@H]3CC[C@]12C)C[N+](C)(C)C"
  GROUP: "not satisfied"
